# Measured On: Troponin, cardiac muscle (Homo sapiens, UniProt P19429+P45379+P63316)
# Experimental Details: Fluorescence-based biochemical high throughput dose response assay for activators of the calcium sensitivity of cardiac Regulated Thin Filaments (RTF). [Related pubchem assays (depositor defined):AID493008, AID493018, AID504382, AID504383]
# Format: protein-complex assay
Active and inactive are the calls of the source.
Possible outcomes: active, inactive

Item Smiles | Class
CC(C)CNC(=S)NC(=O)c1ccccc1Cl | inactive
COc1ccc(/C=C2/SC(c3ccc(C)cc3)=NC2=O)cc1OC | active
COC(=O)c1ccc(S(=O)(=O)N2CCC(O)CC2)n1C | inactive
CCN(CC)C(=S)SCC(=O)c1c(C)[nH]c2ccccc12 | inactive

###

# Experimental Details: NIH3T3 cell viability loss – ATP luminescence, mouse fibroblasts, counter-screen, dose response (AID 2010);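 also: cells exposed to compound for about 90 hours before reading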
# Assay type: functional, cell-based
Activity calls are given as the source filed them.

Item Smiles | EC50
O=C(CCCn1cnc([N+](=O)[O-])n1)Nc1ccc(Cl)cc1Cl | > 60 µM (inconclusive)
CCN(CC)CCN(C(=O)CCS(=O)(=O)c1ccccc1)c1nc2cc(C)cc(C)c2s1 | > 30 µM (not active)
CCOC(=O)c1cnc(-n2nc(C)cc2C)nc1NNc1cc(C)nc(-c2ccccc2)n1 | 56.7 µM (active)
CCOc1ccc(N(CC(=O)NCCC2=CCCCC2)S(=O)(=O)c2ccccc2)cc1 | 10.6 µM (active)
Cc1cc(N/N=C/c2ccc(O)cc2O)nc(-c2ccccc2O)n1 | 4.8 µM (active)
O=C(Nc1nc(-c2ccccn2)cs1)c1ccccc1-n1cnnn1 | 4.31 µM (active)
FC(F)(F)c1cccc(CN2CCC(c3cc(-c4cccs4)[nH]n3)CC2)c1 | 14.6 µM (active)
Oc1ccc(CN2CCN(c3ccccc3)CC2)c2cccnc12 | > 60 µM (not active)
COc1ccc(Cn2c(-c3ccc(Br)cc3)c[n+]3ccccc23)cc1 | > 30 µM (not active)
CCc1cccc2sc(N3CCN(C(=O)c4ccc([N+](=O)[O-])o4)CC3)nc12 | 5.4 µM (active)
Cc1c(C(=O)Nc2ccc(Cl)cc2)c2ccccn2c1CCc1ccncc1 | > 30 µM (not active)

###

# Measured On: Paired box protein Pax-8 (Homo sapiens)
# Sequence (Q06710 whole entry): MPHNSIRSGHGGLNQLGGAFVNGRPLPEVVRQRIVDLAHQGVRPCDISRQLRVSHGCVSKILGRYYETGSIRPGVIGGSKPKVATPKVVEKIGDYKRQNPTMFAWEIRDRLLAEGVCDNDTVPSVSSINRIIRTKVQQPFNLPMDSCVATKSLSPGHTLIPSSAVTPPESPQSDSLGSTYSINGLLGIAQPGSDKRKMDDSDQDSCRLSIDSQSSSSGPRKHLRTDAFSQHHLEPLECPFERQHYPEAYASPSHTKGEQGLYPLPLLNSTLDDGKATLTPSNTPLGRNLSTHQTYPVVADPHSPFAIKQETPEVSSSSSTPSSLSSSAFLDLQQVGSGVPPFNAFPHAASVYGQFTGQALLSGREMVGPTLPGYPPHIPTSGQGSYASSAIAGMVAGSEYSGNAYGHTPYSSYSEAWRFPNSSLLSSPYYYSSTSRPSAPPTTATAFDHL
# Experimental Details: PAX8 transcriptional activity inhibition in RMG-I – RMG-I cells, luciferase, cherry-pick, dose response (AID 687027);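 also: luciferase reporter driven by Pax8 target thyroperoxidase promoter measured by SteadyGlo luminescence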
# Type: functional, cell-based
The source made the active and inactive calls.
Known AC50 of a selection of compounds

Compound | Measured On | AC50
CCCCCc1cc(=O)oc2c(C(CCN3CCCCC3)c3ccc4c(c3)OCO4)c(OC)cc(OC)c12 (centres undefined) | Paired box protein Pax-8 (Homo sapiens) | 13.4 µM (active)
O=C(Nc1ccc(C(F)(F)F)cc1)N1C[C@@H]2N[C@H](C1)[C@@H]2c1ccc(-c2cccc(F)c2)cc1 | Paired box protein Pax-8 (Homo sapiens) | 22.4 µM (active)
Cc1ccc(C(=O)c2cc([N+](=O)[O-])ccc2N2CCCCC2)cc1 | Paired box protein Pax-8 (Homo sapiens) | 3.39 µM (active)
C[C@@H]1CN([C@H](C)CO)C(=O)c2cc(NS(=O)(=O)c3ccc(F)cc3)ccc2O[C@@H](C)CCCCO[C@H]1CN(C)Cc1ccccc1 | Paired box protein Pax-8 (Homo sapiens) | 17.2 µM (active)

Data provenance is ChEMBL document CHEMBL1201862.
